Below, each entry is listed alongside its reported activity, negative = inhibition.
# SYSTEM TESTED: Cytochrome P450 1A2 (Homo sapiens)
# TEST NAME: Cytochrome panel assay with activity outcomes; note: % is set by controls: 0 for no effect and ±100 for the full control effect
# APPLIED CONDITIONS: recombinant CYP, pro-luciferin dealkylation, luminescence, p450-cyp1a2; series mostly up to 57.1 µM
In all, about 16,000 compounds went through this assay and about 5,700 (36%) were called active. About 24% were inconclusive and are not listed. This is one part of the list.

CO[C@@H]1COC(=O)[C@H](COCc2ccccc2)NC(=O)C/C=C\[C@@H](C)[C@H](OC)COC(=O)[C@H](COCc2ccccc2)NC(=O)C/C=C\[C@H]1C -19.7% [at 11.4 µM] (inactive)
CCOC(=O)[C@]1(CC(=O)O)CCCC1=O -12.7% [at 11.4 µM] (inactive)
Cc1cc(C)cc(C(=N)c2ccccc2Cc2cccc3ccccc23)c1 -5.4% [at 2.29 µM] (inactive)
CC(C)(C)CC(C)(C)c1ccc(O)c(C[N+](C)(C)[O-])c1 -17.9% [at 2.29 µM] (inactive)
Cn1c(=O)c2[nH]c(CS(=O)(=O)Cc3nc4c([nH]3)c(=O)n(C)c(=O)n4C)nc2n(C)c1=O -21.1% [at 2.29 µM] (inactive)
OCCCNCc1ccccn1 -20% [at 2.29 µM] (inactive)
CN1CCN(CC(=O)N2c3ccccc3Sc3cc4ccccc4cc32)CC1 -21.6% [at 2.29 µM] (inactive)
Nc1nccc(Nc2ccc(S(N)(=O)=O)cc2)n1 -8.04% [at 11.4 µM] (inactive)

Read the entry OCCNc1ncnc2nc[nH]c12 and write its reported activity, negative = inhibition.
-5.82% [at 11.4 µM] (inactive)

Read the entry CO[C@@H]1COC(=O)[C@H](C)NC(=O)C/C=C\[C@@H](C)[C@@H](NS(=O)(=O)c2ccc(C)cc2)COC(=O)C/C=C\[C@@H]1C and write its reported activity, negative = inhibition.
-6.59% [at 11.4 µM] (inactive)

----------
# SYSTEM TESTED: Cytochrome P450 1A2 (Homo sapiens) (UniProt P05177)
# Sequence (P05177 whole entry, looked up): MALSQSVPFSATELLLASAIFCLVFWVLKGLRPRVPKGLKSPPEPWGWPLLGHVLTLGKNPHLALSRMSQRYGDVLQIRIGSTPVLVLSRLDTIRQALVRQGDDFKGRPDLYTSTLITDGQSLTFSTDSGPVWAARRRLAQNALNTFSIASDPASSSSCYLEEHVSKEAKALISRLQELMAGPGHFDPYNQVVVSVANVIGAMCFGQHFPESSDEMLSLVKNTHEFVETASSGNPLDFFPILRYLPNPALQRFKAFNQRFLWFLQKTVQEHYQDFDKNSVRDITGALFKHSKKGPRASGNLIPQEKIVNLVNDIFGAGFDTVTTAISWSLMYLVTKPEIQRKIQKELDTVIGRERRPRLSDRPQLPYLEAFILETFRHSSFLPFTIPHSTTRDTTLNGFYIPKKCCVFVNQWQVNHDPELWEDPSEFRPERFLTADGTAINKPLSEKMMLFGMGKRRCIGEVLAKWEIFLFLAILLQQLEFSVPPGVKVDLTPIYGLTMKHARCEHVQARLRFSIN
# TEST NAME: Cytochrome panel assay with activity outcomes; note: % is set by controls: 0 for no effect and ±100 for the full control effect
# APPLIED CONDITIONS: recombinant CYP, pro-luciferin dealkylation, luminescence, p450-cyp1a2; series mostly up to 57.1 µM
Among all 16,000 compounds or so, about 5,700 (36%) were called active. Inconclusive results (about 24%) are left out. Some of the results follow.
Below, each entry is listed alongside its reported activity, negative = inhibition.

Look over these answered cases.
COc1ccc2cc1Oc1ccc(cc1)C[C@@H]1c3c(cc(OC)c4c3Oc3cc5c(cc3O4)CCN[C@H]5C2)CCN1C -14.6% [at 11.4 µM] (inactive)
O=C(Cn1ccc(=O)[nH]c1=O)Nc1ccc(C(=O)O)c(O)c1 -16.5% [at 2.29 µM] (inactive)
N/C(=N\O)c1cn([C@@H]2O[C@@H](CO)[C@H](O)[C@@H]2O)c2ncnc(NO)c12 -18.7% [at 2.29 µM] (inactive)
O=C(O)COc1c(Cl)cc(Cl)c2cccnc12 -1.3% [at 2.29 µM] (inactive)

Answer with activity, negative = inhibition of Cc1cc2c(c(=O)o1)[C@H](O)[C@H]1O[C@@H]1C2=O measured for Cytochrome P450 1A2 (Homo sapiens) (UniProt P05177).
2.69% [at 11.4 µM] (inactive)

Where do these numbers come from? They come from PubChem BioAssay AID1851.
